interaction score values for the binders below.
Molecular target: T1, 4H2931-bA
T1 chain: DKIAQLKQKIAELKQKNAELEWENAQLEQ
Assay: two-hybrid library CCNG1;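 note: natural log of median RNA to DNA barcode read ratio; higher means stronger binding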
Could you keep your reply to the number by itself?

Below, each entry is followed by its recorded interaction score result.
{"binder": "DEIAQLEQKIAELEQEIAELEWKNAQLKQ [4H264-bA]", "interaction score": 2.07}
{"binder": "DEIAQLEQENAELKQKIAELKWENAQLEQ [4H235-bA]", "interaction score": -0.643}
{"binder": "DEIAQLEQENAELEQKIAELEWKIAQLKQ [4H166-bA]", "interaction score": 1.56}

Challenge: Look at this binder and give its reported interaction score. DKIAQLEQENAELKQEIAELKWKIAQLEQ [4H2253-bA]
Response given: -0.566

Challenge: Look at this binder and give its reported interaction score. DKIAQLEQKNAELEQEIAELKWENAQLKQ [4H2444-bA]
Response given: 0.114

Challenge: Look at this binder and give its reported interaction score. DKIAQLEQEIAELKQKNAELEWEIAQLKQ [4H2162-bA]
Response given: 1.13

Challenge: Look at this binder and give its reported interaction score. DKIAQLEQENAELEQKNAELKWEIAQLEQ [4H2233-bA]
Response given: -1.08
